Give pEC50 for every item shown.
- Tested on: B-ALL
- METHOD: Antiproliferative activity against mouse B-ALL BCR-ABL double knockout cells assessed as reduction in cell viability after 72 hrs by CellTiter-Glo assay
- Type: functional, cell-based
Give bare numbers, as −log10 of the molar value.

Look over these answered cases.
COc1ccc(-c2[nH]nc(C)c2-c2ccc(OC)c(O)c2)c(O)c1; 4.54
O=C(Cc1ccccc1)Nc1ccc(-c2nc3cc(NC(=O)Cc4ccccc4)ccc3[nH]2)cc1; 6.11
Cc1ccc(S(=O)(=O)Cc2nc(-c3ccc(C(=O)NCc4cccnc4)cc3)oc2C)cc1; 7.21
c1ccc2[nH]c(-c3ccc(-c4nc5ccccc5[nH]4)nc3)nc2c1; 4.47
CS(=O)(=O)c1ccc(-c2cccc3c2OC(CNC(=O)c2ccccc2F)C3)cc1 (configuration not stated); 4.44

Kindly consider the entry below.
Prompt: Identify the reported pEC50 for the following entry. NC(=O)c1sccc1Nc1[nH]c(Nc2cccc(OC(F)(F)F)c2)nc2nncc1-2
Response: 4.84

* * *

- Tested on: K562
- METHOD: Antiproliferative activity against human K562 assessed as reduction in cell viability after 72 hrs by CellTiter-Glo assay
- Assay type: functional, cell-based
- PROTOCOL_CONDITIONS: K562, 72 h
REPORTED_ENDPOINT: EC50 (µM)
One number for each entry, in µM.

Look over these answered cases.
CCN(CC)c1ccc(-n2cnnc2-c2cccc(O)c2)cc1; 1.07
Cc1ccc(S(=O)(=O)Cc2nc(-c3ccc(C(=O)NCc4cccnc4)cc3)oc2C)cc1; 4.6
c1ccc2[nH]c(-c3ccc(-c4nc5ccccc5[nH]4)nc3)nc2c1; 7.33

Prompt: Identify the reported EC50 for the following entry. CC(C)C(=O)Nc1ccc2oc(-c3ccc(C(C)(C)C)cc3)nc2c1
Response: 8.36

* * *

- Tested on: B-ALL
- METHOD: Antiproliferative activity against mouse B-ALL BCR-ABL double knockout cells assessed as reduction in cell viability after 72 hrs by CellTiter-Glo assay
- Type: functional, cell-based
Give pEC50 for every item shown.
One number for each entry, as −log10 of the molar value.

Count: 4. Required value per item: pEC50.
1. COc1ccc(O)c(C(=O)NCCc2ccc(-c3cnc(C)s3)cc2)c1
2. COc1cc(-c2cc3ccccc3[nH]2)[nH]c1/C=C1\N=C(C)C=C1C
3. COc1ccc(O)c(-c2cc(-c3ccc(Cl)cc3)[nH]n2)c1
4. COc1ccc(O)c(-c2cc(-c3cc(Cl)ccc3O)[nH]n2)c1

Response:
1: 4.64; 2: 4.90; 3: 4.56; 4: 4.95

* * *

- METHOD: Efflux ratio of apparent permeability across basolateral to apical side over apical to basolateral side in human Caco2 cells
- Format: ADME, cell-based
- PROTOCOL_CONDITIONS: Caco-2
Classify as follows. Reported efflux ratio greater than or equal to 4: yes (1). Reported efflux ratio below: no (0).

CC(C)C(=O)Nc1ccc2oc(-c3ccc(C(C)(C)C)cc3)nc2c1; no (0)
O=C(Cc1ccccc1)Nc1ccc(-c2nc3cc(NC(=O)Cc4ccccc4)ccc3[nH]2)cc1; yes (1)
NC(=O)N1c2ccccc2C=Cc2ccccc21 [CARBAMAZEPINE]; no (0)
CC[C@]1(O)C[C@@H]2CN(CCc3c([nH]c4ccccc34)[C@@](C(=O)OC)(c3cc4c(cc3OC)N(C)[C@H]3[C@@](O)(C(=O)OC)[C@H](OC(C)=O)[C@]5(CC)C=CCN6CC[C@]43[C@@H]65)C2)C1; yes (1)

Prompt: Does the compound Cc1ccc(S(=O)(=O)Cc2nc(-c3ccc(C(=O)NCc4cccnc4)cc3)oc2C)cc1 have recorded efflux ratio that is 4 or more?
Response: no (0)
